The entries below are paired with their reported cytotoxicity at 10 µM.
Experiment: Toxicity liver stage against HepG2, at 10uM
Assay type: cell-based
Design: test concentration 10 uM, cell line HepG2-A16-CD81EGFP
Settings: human, HepG2-A16-CD81EGFP cells; read-out: INHIBITION
recordedMetric: cytotoxicity at 10 µM (%)

COc1ccc(Cl)cc1NC(=O)N(C)CC(O)COCCOC(C)C (stereo unspecified): 11.3
CN(Cc1ccco1)[C@@H]1CN(C(=O)c2cnccn2)C[C@@H]2CCCO[C@@H]21: 3.25
CCOc1ccc(Cl)cc1NC(=O)N1CCC(n2cncn2)CC1: 4.93
CN(C)C(=O)N1CC2(CCNCC2)c2cc(F)ccc21: -79.9
CC(C)C1CN(C(=O)c2ccsc2)CCS1 (stereo unspecified): 2.46
c1ccc(-c2ncc(CNC3CCc4ncnn4C3)cn2)cc1 (stereo unspecified): -0.722

----------
Assay: Toxicity liver stage against HepG2, at 10uM
Format: cell-based
Set-up: test concentration 10 uM, cell line HepG2-A16-CD81EGFP
Conditions: human, HepG2-A16-CD81EGFP cells; read-out: INHIBITION
The entries below are paired with their reported cytotoxicity at 10 µM.
recordedMetric: cytotoxicity at 10 µM (%)

N#Cc1ccc(C(=O)N2CCc3c(COCC4CC4)cncc3C2)cc1: -98.8
CCCNC(=O)CNc1cc(C#N)ccc1OCC: -11.6
O=C(c1ccc(=O)[nH]c1)N1CCCC1c1nc2cc(F)ccc2[nH]1 (configuration not stated): 14.3
CCc1nc(CC(=O)NCC2(C(N)=O)CCOCC2)cs1: -9.92
O=C(O)c1cnc2c(Br)cccc2c1O: 15.5
COc1cnc(N2C[C@H](CO)C[C@H](CN3CCOCC3)C2)nc1: -8.11
CC(=O)c1ccc(CNC(=O)c2c(C)cc(C)cc2C)nc1C: 9.31
Cc1cc(N2CCC(NC(=O)C3CC3)CC2)nc(-c2ccncc2)n1: -3.71
Cc1cnn(C2CCCN(C(=O)c3cn4cccnc4n3)C2)c1 (configuration not stated): -11.4
CCn1ccc(C(=O)NCCCN2CCOCC2)n1: -7.9
O=C(CC1CCCC1)NCCNCc1cccc2c1OCCO2: -0.912
CC(O)(CNc1ccccn1)c1ccccc1 (configuration not stated): -44.3

----------
The entries below are paired with their reported cytotoxicity at 10 µM.
Assay: Toxicity liver stage against HepG2, at 10uM
Format: cell-based
Parameters: test concentration 10 uM, cell line HepG2-A16-CD81EGFP
Conditions: human, HepG2-A16-CD81EGFP cells; read-out: INHIBITION
recordedMetric: cytotoxicity at 10 µM (%)

O=C(c1cccnc1SC/C=C/c1ccccc1)N1CCOCC(O)C1 (configuration not stated): -2.42
O=C1CCc2cc(-c3csc(CCN4CCOC4=O)n3)ccc2N1: -12.2
Cc1cc(CN2C[C@@H]3COC[C@H](C(=O)N4CCCCO4)[C@@H]3C2)oc1C: -74.1
CC(CCNC(=O)NCCc1ccc(S(N)(=O)=O)cc1)c1ccccc1 (configuration not stated): -17.4
CCSCCC(=O)NCc1cc2n(n1)CCN(C(=O)N(C)C)C2: -5.38
O=C(c1ccccc1)C1CCN(Cc2cc3c(cc2O)CCC3)CC1: 24.2
CCCc1nc(N2CCCC(CCOC)C2)c2cnn(C)c2n1 (configuration not stated): 12.1
CCn1cnnc1CNC(=O)N1CCOCC1: 3.66
Cc1ccc(N2CCCC(c3[nH]ncc3Cc3ccccc3)C2)nn1 (configuration not stated): 10.4
CC(C)(C)NC(=O)C1CSCN1S(=O)(=O)c1ccccc1F (configuration not stated): -8.23
O=C(NCC1(O)CCOC1)c1ccccc1Cl (configuration not stated): -40.3
CC(C)(Cn1cnc(-c2ccccc2)c1-c1ccco1)N1CCOCC1: -38.8
COc1c(CNCCNC(=O)c2ccco2)c(C)nn1C: -5.92
Cc1nc2ccccc2n1Cc1cc(C(=O)N(C)C2CCOCC2)no1: 25.7
CC(C(=O)Nc1sccc1C(N)=O)N(C)CCOc1ccccc1 (configuration not stated): 2.59
O=C(CCCn1cncn1)N1CCCC1c1nc(-c2ccccc2)no1 (configuration not stated): 0.997
Cc1noc(C)c1CCc1nc(C2CCOC2)no1 (configuration not stated): -4
O=S(=O)(c1cc(F)ccc1F)N1CCCC1c1ccncc1 (configuration not stated): 14.3
Cc1cnc(CN(C)C2CCN(Cc3nc4ccccc4o3)C2)o1 (configuration not stated): -19.4
CC(C)CN1CCc2[nH]cnc2C12CCN(C(=O)c1ccccn1)CC2: -11.6
Cc1noc(COCC(=O)Nc2ncccc2Br)n1: 2.13
CC(O)CN1CCN(C(=O)c2cnn(-c3ccc(Cl)cc3)c2)CC1 (configuration not stated): -10.3
CCc1nc(C2CCCN2Cc2noc(Cc3ccccc3)n2)no1 (configuration not stated): 1.29
CNC(=O)c1cccc(CN2CCC(N(C)Cc3nnc(C)o3)C2)c1 (configuration not stated): 8.75
CC(C)c1cnc(CN2C(=O)CC3(CCSC3)C2=O)o1 (configuration not stated): 17.2
Fc1cnc(N2C[C@@H](OCC3CCOCC3)[C@H]3OCCC[C@H]32)nc1: 10.5
COCc1ccccc1C(=O)NCC(O)c1ccc(Cl)s1 (configuration not stated): -6.63
COCC(=O)N1CCO[C@H]2[C@H](OC)CC[C@@H]21: 6.61
Cn1nc(COCC2CC2)c2c1CCN(C(=O)c1ccno1)C2: 6.8
CN(C)CCNC(=O)c1ccc(OC2CCN(C3CCC3)CC2)c(Cl)c1: -5.89
CC(C)C(O)C1CCN(c2ccnc(C(=O)NCc3ccco3)c2)CC1 (configuration not stated): -0.598
CC(C)CCN1CC[C@H](c2nnc(Cc3c[nH]c4ccccc34)o2)C1: 0.167
CCN(C)S(=O)(=O)N(Cc1cscn1)c1ccccc1: -3.81
CC(C)N(C)Cc1cncc2c1CCN(Cc1ccoc1)C2: -109
Cn1ccnc1CN1CCCC1Cn1cccn1 (configuration not stated): -13.8
CCOc1cccc2c1OCC(C(=O)NS(=O)(=O)c1ccc(Cl)s1)=C2: -3.21
Cc1ccc(O)c(C(=O)N2CCOCC2c2c(C)n[nH]c2C)c1 (configuration not stated): -10.8
Cc1cc(C[C@@H]2COC[C@H]2NCc2ccc(C(C)C)cc2)on1: -30.4
CCN(CC)S(=O)(=O)c1cccc(C(=O)N(C)Cc2ccsc2)c1: -6.8
Fc1ccccc1CN1CCCC2(CCN(c3ncccn3)C2)C1 (configuration not stated): -104
O=C(CCn1c(C(F)(F)F)cc2cccnc21)N1CCC(O)CC1: -28.5
CC(C(=O)N(C)C)N1CCCN(C(=O)Oc2ccccc2)CC1 (configuration not stated): -0.37
CC(=O)N1CCN(C(=O)Nc2ccccc2)CC2(CC(=O)N(C)C2)C1 (configuration not stated): -8.93
CC(Cc1ccco1)NC(=O)Nc1cnn(CC(N)=O)c1 (configuration not stated): 7.82
CN1CCCN(c2nc(C3CC3)ns2)CC1: -3.23
O=C(Cc1cccc(F)c1)N1CCN2C[C@H](Oc3cncnc3)C[C@H]2C1: 6.1
CN(C)c1ccc(NC(=O)NCc2cccnc2N(C)C)cn1: -20.9
